Tested on: Escherichia coli BW25113
method-summary: plate-normalized OD600 growth (mean of duplicates) (OD600 (normalized)); higher = more growth (less inhibition)
run-conditions: temperature: 15°C; 48 h; 10 µM
Whole data set: some 1,600 compounds, median “plate-normalized OD600 growth (mean of duplicates)” near 0.31, cut for the lowest 2% near 0.23. The sample as a whole holds a higher share of the lowest values than the screen did.
Form field: plate-normalized OD600 growth (one value per entry).

>  <compound>
Cc1nc(N)nc(OCC(F)(F)C(F)F)c1Br

>  <target>
Escherichia coli BW25113

>  <plate-normalized OD600 growth>
0.221

$$$$
>  <compound>
O=C(O)CCC(=O)Nc1ccc(-c2nc3ccccc3[nH]2)cc1

>  <target>
Escherichia coli BW25113

>  <plate-normalized OD600 growth>
0.247

$$$$
>  <compound>
O=C(O)c1ccc(NS(=O)(=O)c2cccc(C(=O)Nc3ccccc3)c2)cc1

>  <target>
Escherichia coli BW25113

>  <plate-normalized OD600 growth>
0.245

$$$$
>  <compound>
O=C(NC1C[C@@H]1c1ccccc1)[C@@H]1CC1c1ccccc1 (stereo not given in full)

>  <target>
Escherichia coli BW25113

>  <plate-normalized OD600 growth>
0.272

$$$$
>  <compound>
O=C(Nc1cccc([N+](=O)[O-])c1)c1cc(S(=O)(=O)Nc2ccccc2)ccc1Cl

>  <target>
Escherichia coli BW25113

>  <plate-normalized OD600 growth>
0.256

$$$$
>  <compound>
N#CSc1cnc(NC2CCCCC2)s1

>  <target>
Escherichia coli BW25113

>  <plate-normalized OD600 growth>
0.254

$$$$
>  <compound>
COc1ccccc1NS(=O)(=O)c1ccc(C(C)(C)C)cc1

>  <target>
Escherichia coli BW25113

>  <plate-normalized OD600 growth>
0.254

$$$$
>  <compound>
CCN(CC)CCN(C)Cc1cccc([N+](=O)[O-])c1

>  <target>
Escherichia coli BW25113

>  <plate-normalized OD600 growth>
0.245

$$$$
>  <compound>
CCC(CO)NC1=C([N+](=O)[O-])C(=O)CC(C)(C)C1 (stereo not given)

>  <target>
Escherichia coli BW25113

>  <plate-normalized OD600 growth>
0.282

$$$$
>  <compound>
Cc1ccc(S(=O)(=O)CCSc2cccc(C(=O)Nc3ccccc3)c2)cc1

>  <target>
Escherichia coli BW25113

>  <plate-normalized OD600 growth>
0.243

$$$$
>  <compound>
O=C(COc1ccc(Cl)cc1Cl)Nc1ccc(C(=O)O)cc1

>  <target>
Escherichia coli BW25113

>  <plate-normalized OD600 growth>
0.261

$$$$
>  <compound>
Cc1cccc(NC(=O)COc2ccc(C)c(C)c2)c1

>  <target>
Escherichia coli BW25113

>  <plate-normalized OD600 growth>
0.237

$$$$
>  <compound>
Cc1ccccc1CN(C)C1CCN(C)CC1

>  <target>
Escherichia coli BW25113

>  <plate-normalized OD600 growth>
0.256

$$$$
>  <compound>
NS(=O)(=O)c1ccc(-c2ccc(C=O)o2)cc1

>  <target>
Escherichia coli BW25113

>  <plate-normalized OD600 growth>
0.227

$$$$
>  <compound>
Nc1ccc(Br)cc1-c1nc2ccccc2[nH]c1=O

>  <target>
Escherichia coli BW25113

>  <plate-normalized OD600 growth>
0.254

$$$$
